System: TRPC4 beta (transient receptor potential cation channel C4), mouse
Assay: potentiation of DAMGO EC20 TRPC4 response – cell-based, Fluo-4, HEK293 TRPC4beta/mu-opioid, confirmation (AID 2555)
Conditions: DAMGO EC20, Fluo-4 calcium flux, at 10 µM
Active and inactive are the calls of the source.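 Rule for the calls: active = primary screen hit whose calcium fluorescence ratio, in both repeats, exceeds the weak agonist control mean by 3 SD; inactive = the rest.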
Answer with one of the outcomes given here: YES = active, NO = inactive

molecule	discrete-label
COc1cc2ccccc2cc1C(=O)NCC(c1cccs1)N(C)C (stereo not given)	NO

Outcome? OC(c1ccccc1)(c1ccccc1)C1CCN(C(=S)NC2CCCC2)CC1 NO

// same read-out, input: COc1ccc(CCN(C)C(=O)c2cc(S(=O)(=O)N3CCCCC3)ccc2Cl)cc1OC NO

For O=C(Nc1ccc(Oc2ccccc2)nc1)C1CCN(Cc2ccccc2)CC1 then? NO

Likewise for COc1cc2c(C(=O)N3CCN(C)CC3)c(CSc3ccccc3)n(C)c2cc1Br ? YES

Same again, this time with CCc1ccccc1NC(=S)N(CCCN(C)C)Cc1cc2cc3c(cc2[nH]c1=O)OCO3 NO

Item: COC(=O)[C@@]12CCCCN1[C@H](c1ccc(-c3ccc(C(C)=O)cc3)cc1)[C@@H]1C(=O)N(C)C(=O)[C@@H]12 NO

Note, next up: Cn1c(=O)c2c(nc(CN3CCc4ccccc4C3)n2Cc2cccc(Cl)c2)n(C)c1=O YES

Queued: c1ccc(-c2nc(N3CCNCC3)nc3ccccc23)cc1 NO

What would you report for C/C(N)=C(/C#N)C(=O)COC(=O)CC12CC3CC(CC(C3)C1)C2 ? NO
